test system: TYKNU; experiment: fractional viability relative to vehicle; TYKNU is a high-grade serous ovarian cancer line; higher = less growth inhibition; settings: 10uM; 72 h; genotype: sgCTRLA1 (non-targeting control)
Over roughly 2,000 compounds, “fractional viability relative to vehicle” has its median near 0.91; the lowest 2% begin near 0.045. This is one part of a sample in which the lowest values are shown more often than they occur.
For each record, write down the corresponding fractional viability.
Answers are plain numbers.

[
  {
    "compound": "CC(C)(C)C[C@@H]1N[C@@H](C(=O)N[C@H]2CC[C@H](O)CC2)[C@H](c2cccc(Cl)c2F)[C@]12C(=O)Nc1cc(Cl)ccc12",
    "fractional viability": 0.225
  },
  {
    "compound": "Cc1ccc(NC(=O)c2ccc(CN3CCN(C)CC3)cc2)cc1Nc1nccc(-c2cccnc2)n1 [Imatinib (STI571)]",
    "fractional viability": 0.867
  }
]

Read the next record carefully.
Please indicate fractional viability recorded for C[C@H]1O[C@@H](O[C@H]2[C@@H](O)C[C@H](O[C@H]3[C@@H](O)C[C@H](O[C@H]4CC[C@@]5(C)[C@H](CC[C@@H]6[C@@H]5C[C@@H](O)[C@]5(C)[C@@H](C7=CC(=O)OC7)CC[C@]65O)C4)O[C@@H]3C)O[C@@H]2C)C[C@H](O)[C@@H]1O [Digoxin]
0.0309
